These data points were gathered from ChEMBL document CHEMBL1138549.

A collection of compounds and their measured MIC
System: Staphylococcus aureus
Assay: Antibacterial activity against Staphylococcus aureus MTCC 96 after 24 hrs by NCCLS M7-A5 method
Assay type: functional
Settings: MTCC 96, 24 h

>  <COMPOUND>
Cc1cc(C)c2c(n1)NC(c1ccccc1O)NC2=O (stereo unspecified)

>  <VALUE_UNITS>
µg/mL

>  <MIC>
50

$$$$
>  <COMPOUND>
Cc1cc(C)c2c(=O)[nH]c(-c3ccccc3O)nc2n1

>  <VALUE_UNITS>
µg/mL

>  <MIC>
50

$$$$
>  <COMPOUND>
COc1ccc(C2NC(=O)c3c(C)cc(C)nc3N2)cc1OC (stereo unspecified)

>  <VALUE_UNITS>
µg/mL

>  <MIC>
3.25

$$$$
>  <COMPOUND>
CC(=O)Oc1ccc(C2NC(=O)c3c(C)cc(C)nc3N2)cc1 (stereo unspecified)

>  <VALUE_UNITS>
µg/mL

>  <MIC>
12.5

$$$$
>  <COMPOUND>
COc1cc(-c2nc3nc(C)cc(C)c3c(=O)[nH]2)ccc1O

>  <VALUE_UNITS>
µg/mL

>  <MIC>
12.5

$$$$
>  <COMPOUND>
Cc1cc(C)c2c(n1)NC(c1cccc(Cl)c1Cl)NC2=O (stereo unspecified)

>  <VALUE_UNITS>
µg/mL

>  <MIC>
50

$$$$
>  <COMPOUND>
COc1ccc(-c2nc3nc(C)cc(C)c3c(=O)[nH]2)c(OC)c1

>  <VALUE_UNITS>
µg/mL

>  <MIC>
25

$$$$
>  <COMPOUND>
COc1ccc(-c2nc3nc(C)cc(C)c3c(=O)[nH]2)cc1OC

>  <VALUE_UNITS>
µg/mL

>  <MIC>
6.25

$$$$
>  <COMPOUND>
Cc1cc(C)c2c(=O)[nH]c(-c3cc(C)c(O)c(C)c3)nc2n1

>  <VALUE_UNITS>
µg/mL

>  <MIC>
6.25

$$$$
>  <COMPOUND>
COc1ccc(C2NC(=O)c3c(C)cc(C)nc3N2)cc1 (stereo unspecified)

>  <VALUE_UNITS>
µg/mL

>  <MIC>
12.5

$$$$
>  <COMPOUND>
Cc1cc(C)c2c(n1)NC(c1cccc(C)c1C)NC2=O (stereo unspecified)

>  <VALUE_UNITS>
µg/mL

>  <MIC>
12.5

$$$$
